ASSAY_SYSTEM: PDE4B1 (Homo sapiens, UniProt Q07343)
Construct: purchased Sigma
Sequence (Q07343 whole entry): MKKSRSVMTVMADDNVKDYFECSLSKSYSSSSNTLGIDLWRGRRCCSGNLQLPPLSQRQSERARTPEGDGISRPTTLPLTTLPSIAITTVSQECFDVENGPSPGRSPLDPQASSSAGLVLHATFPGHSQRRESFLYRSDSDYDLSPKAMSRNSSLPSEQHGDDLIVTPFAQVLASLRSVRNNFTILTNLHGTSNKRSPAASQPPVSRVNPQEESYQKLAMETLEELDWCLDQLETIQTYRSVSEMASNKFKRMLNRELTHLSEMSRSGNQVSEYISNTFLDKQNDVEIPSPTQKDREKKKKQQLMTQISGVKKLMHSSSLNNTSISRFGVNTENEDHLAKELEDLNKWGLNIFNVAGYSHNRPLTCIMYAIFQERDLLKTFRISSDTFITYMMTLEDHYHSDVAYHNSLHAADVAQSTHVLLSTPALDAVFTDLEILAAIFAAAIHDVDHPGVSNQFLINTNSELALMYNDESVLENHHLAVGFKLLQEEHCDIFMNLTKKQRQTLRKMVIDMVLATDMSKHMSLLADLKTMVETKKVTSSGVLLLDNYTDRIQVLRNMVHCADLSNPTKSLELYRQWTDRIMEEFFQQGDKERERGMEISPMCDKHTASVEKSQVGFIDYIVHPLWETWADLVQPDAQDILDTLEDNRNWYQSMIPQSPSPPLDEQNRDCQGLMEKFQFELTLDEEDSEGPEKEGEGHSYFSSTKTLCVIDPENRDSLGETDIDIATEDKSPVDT
PROTOCOL_NOTES: In vitro inhibitory effect on PDE4B1 enzyme (AMP-Glo assay)
Format: biochemical
SETTINGS: AMP-Glo Assay Kit, substrate cAMP, 23°C, 10 minutes; read-out: PDE4B1 (IC50)

{"columns": ["MOLECULE", "IC50 (nM)"],
 "data": [
  ["COc1cc2c(cc1OC)-c1cc(=Nc3c(C)cc(C)cc3C)n(CCC(O)CO)c(=O)n1CC2 (stereo not drawn)", 974],
  ["CCOc1cc2c(cc1OC)-c1cc(=Nc3c(C)cc(C)cc3C)n(CCN3CCS(=O)(=O)CC3)c(=O)n1CC2", 414],
  ["CCOc1cc2c(cc1OC)-c1cc(N(CCC(N)C(F)(F)F)c3c(C)cc(C)cc3C)nc(=O)n1CC2 (stereo not drawn)", 8.9]
]}

---

ASSAY_SYSTEM: PDE3A (Homo sapiens, UniProt Q14432)
Construct: purchased BPS
Sequence (Q14432 whole entry): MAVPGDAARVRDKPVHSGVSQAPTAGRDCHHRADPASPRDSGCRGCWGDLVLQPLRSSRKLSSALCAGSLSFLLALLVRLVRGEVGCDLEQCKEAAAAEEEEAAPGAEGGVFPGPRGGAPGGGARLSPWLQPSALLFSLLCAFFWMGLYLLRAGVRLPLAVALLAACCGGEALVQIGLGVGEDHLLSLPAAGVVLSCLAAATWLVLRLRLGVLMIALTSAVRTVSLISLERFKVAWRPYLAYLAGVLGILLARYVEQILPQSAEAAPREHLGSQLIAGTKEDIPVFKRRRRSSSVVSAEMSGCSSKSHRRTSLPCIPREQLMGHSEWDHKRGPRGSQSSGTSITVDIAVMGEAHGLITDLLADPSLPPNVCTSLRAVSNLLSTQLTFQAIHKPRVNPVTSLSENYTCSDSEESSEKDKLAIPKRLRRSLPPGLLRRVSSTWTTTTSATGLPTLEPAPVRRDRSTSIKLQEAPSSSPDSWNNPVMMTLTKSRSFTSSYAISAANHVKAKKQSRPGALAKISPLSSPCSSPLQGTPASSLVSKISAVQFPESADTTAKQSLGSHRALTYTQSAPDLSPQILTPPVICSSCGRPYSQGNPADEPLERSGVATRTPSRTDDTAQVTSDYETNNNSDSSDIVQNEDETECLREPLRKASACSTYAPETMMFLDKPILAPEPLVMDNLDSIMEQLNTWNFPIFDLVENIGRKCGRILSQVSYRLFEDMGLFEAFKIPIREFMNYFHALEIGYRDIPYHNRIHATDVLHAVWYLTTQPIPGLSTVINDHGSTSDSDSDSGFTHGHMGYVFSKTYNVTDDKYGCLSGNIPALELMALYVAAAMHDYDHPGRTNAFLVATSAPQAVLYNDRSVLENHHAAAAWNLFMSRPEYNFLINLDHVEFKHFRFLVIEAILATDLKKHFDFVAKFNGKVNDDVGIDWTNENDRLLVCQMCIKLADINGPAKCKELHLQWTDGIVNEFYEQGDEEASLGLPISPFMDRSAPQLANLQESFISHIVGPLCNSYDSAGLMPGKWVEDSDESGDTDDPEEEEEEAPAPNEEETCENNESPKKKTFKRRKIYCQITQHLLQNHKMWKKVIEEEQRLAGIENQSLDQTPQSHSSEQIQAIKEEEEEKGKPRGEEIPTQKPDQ
PROTOCOL_NOTES: In vitro inhibitory effect on PDE3A enzyme (AMP-Glo assay)
Type: biochemical
pIC50: −log10 of the molar value.
ENDPOINT: pIC50

{"columns": ["MOLECULE", "RECORDED_NUMBER"],
 "data": [
  ["CCn1cccc(C(=O)NCCn2c(=Nc3c(C)cc(C)cc3C)cc3n(c2=O)CCc2cc(OC)c(OC)cc2-3)c1=O", 8.89],
  ["CCOc1cc2c(cc1OC)-c1cc(=Nc3c(C)cc(C)cc3C)n(CCNC(=O)c3cc[nH]c(=O)c3)c(=O)n1CC2", 8.49],
  ["COc1cc2c(cc1OC)-c1cc(N(CCNC(=O)N3CCOCC3CO)c3c(C)cc(C)cc3C)nc(=O)n1CC2 (stereo not shown)", 9.80],
  ["Cc1cc(C)c(N=c2cc3n(c(=O)n2CCNC(N)=O)CCc2cc4c(cc2-3)OCO4)c(C)c1", 6.93]
]}

---

Catalogue of compounds with associated IC50
ASSAY_SYSTEM: PDE4B1 (Homo sapiens, UniProt Q07343)
Construct: purchased Sigma
PROTOCOL_NOTES: In vitro inhibitory effect on PDE4B1 enzyme (AMP-Glo assay)
Format: biochemical
Description: 1. Table 1 Main reagents and consumables for in vitro detection of inhibitory effect 2. Preparation of experimental buffers Reaction buffer (5×): 50 mM Tris-HCl (buffer), 50 mM MgCl2, 0.5% BSA, 0.25% Tween-20, pH 7.4, stored at -20°C. 3. […] After centrifugation and sealing, the plate was incubated in the incubator at 23°C for 60 minutes. • 7) The readout was recorded using a multimode microplate reader. […]
ENDPOINT: IC50 (µM)

{"columns": ["COMPOUND", "ASSAY_SYSTEM", "ENDPOINT", "RECORDED_NUMBER"],
 "data": [
  ["CCn1cccc(C(=O)NCCn2c(=Nc3c(C)cc(C)cc3C)cc3n(c2=O)CCc2cc(OC)c(OC)cc2-3)c1=O", "PDE4B1 (Homo sapiens, UniProt Q07343)", "IC50", 0.0821],
  ["COc1cc2c(cc1OC)-c1cc(=Nc3c(C)cc(C)cc3C)n(CCNC(=O)N3Cc4cn(C5CC5)nc4C3)c(=O)n1CC2", "PDE4B1 (Homo sapiens, UniProt Q07343)", "IC50", 0.334],
  ["COc1cc2c(cc1OC)C(C)Cn1c-2cc(=Nc2c(C)cc(C)cc2C)n(CCNC(N)=O)c1=O (stereo not drawn)", "PDE4B1 (Homo sapiens, UniProt Q07343)", "IC50", 0.114],
  ["COc1cc2c(cc1OC)-c1cc(=Nc3c(C)cc(C)cc3C)n(CCNC(=O)N3CCOCC3CO)c(=O)n1CC2 (stereo not drawn)", "PDE4B1 (Homo sapiens, UniProt Q07343)", "IC50", 2.83],
  ["CCOc1cc2c(cc1OC)-c1cc(N(CCN)c3c(C)cc(C)cc3C)nc(=O)n1CC2", "PDE4B1 (Homo sapiens, UniProt Q07343)", "IC50", 0.0753],
  ["COc1cc2c(cc1OC)-c1cc(=Nc3c(C)cc(C)cc3F)n(CCNC(N)=O)c(=O)n1CC2", "PDE4B1 (Homo sapiens, UniProt Q07343)", "IC50", 0.268],
  ["COc1cc2c(cc1OC)-c1cc(N(CCNC(N)=O)c3c(C)cc(C)cc3C)nc(=O)n1CC2", "PDE4B1 (Homo sapiens, UniProt Q07343)", "IC50", 0.1],
  ["CONC(=O)NCCn1c(=Nc2c(C)cc(C)cc2C)cc2n(c1=O)CCc1cc(OC)c(OC)cc1-2", "PDE4B1 (Homo sapiens, UniProt Q07343)", "IC50", 0.377],
  ["COc1cc2c(cc1OC)-c1cc(N(CCNC(=O)c3cccn(C)c3=O)c3c(C)cc(C)cc3C)nc(=O)n1CC2", "PDE4B1 (Homo sapiens, UniProt Q07343)", "IC50", 0.0178],
  ["COc1cc2c(cc1OC)-c1cc(=Nc3c(C)cc(C)cc3C)n(CCNC(=O)c3cnc4n3CCC4)c(=O)n1CC2", "PDE4B1 (Homo sapiens, UniProt Q07343)", "IC50", 0.53],
  ["CCOc1cc2c(cc1OC)-c1cc(N(CCC(=O)NCCO)c3c(C)cc(C)cc3C)nc(=O)n1CC2", "PDE4B1 (Homo sapiens, UniProt Q07343)", "IC50", 0.0142],
  ["CCOc1cc2c(cc1OC)-c1cc(N(c3c(C)cc(C)cc3C)C(CO)CO)nc(=O)n1CC2", "PDE4B1 (Homo sapiens, UniProt Q07343)", "IC50", 0.0074],
  ["CCOc1cc2c(cc1OC)-c1cc(=Nc3c(C)cc(C)cc3C)n(CCCN)c(=O)n1CC2", "PDE4B1 (Homo sapiens, UniProt Q07343)", "IC50", 0.359],
  ["COc1cc2c(cc1OC)-c1cc(N(CCNC(=O)c3c(O)nnn3C)c3c(C)cc(C)cc3C)nc(=O)n1CC2", "PDE4B1 (Homo sapiens, UniProt Q07343)", "IC50", 0.223],
  ["COc1cc2c(cc1OC)-c1cc(N(c3c(C)cc(C)cc3C)C3CN(C(N)=O)C3)nc(=O)n1CC2", "PDE4B1 (Homo sapiens, UniProt Q07343)", "IC50", 0.238]
]}
